Measurement Protocol: Antifouling assay: settlement and mortality of barnacle cyprids after 48 h
Assay type: in vivo
Condition: Amphibalanus amphitrite (barnacle, in vivo); cypris larvae, 48 h incubation; read-out: LC50 (toxicity)
Quantity Name: LC50 at 48 h

INSERT INTO assay_data (molecule, result) VALUES
  ('[C-]#[N+][C@H]1[C@H](OC(C)C)O[C@H](CO[Si](C)(C)C(C)(C)C)[C@@H](O[Si](C)(C)C(C)(C)C)[C@@H]1O[Si](C)(C)C(C)(C)C [Compound 6k]', '> 10 µg/mL');
